Each record here notes measured IC50.
Biological target: PI3K α (Homo sapiens)
Sequence (P42336 whole entry): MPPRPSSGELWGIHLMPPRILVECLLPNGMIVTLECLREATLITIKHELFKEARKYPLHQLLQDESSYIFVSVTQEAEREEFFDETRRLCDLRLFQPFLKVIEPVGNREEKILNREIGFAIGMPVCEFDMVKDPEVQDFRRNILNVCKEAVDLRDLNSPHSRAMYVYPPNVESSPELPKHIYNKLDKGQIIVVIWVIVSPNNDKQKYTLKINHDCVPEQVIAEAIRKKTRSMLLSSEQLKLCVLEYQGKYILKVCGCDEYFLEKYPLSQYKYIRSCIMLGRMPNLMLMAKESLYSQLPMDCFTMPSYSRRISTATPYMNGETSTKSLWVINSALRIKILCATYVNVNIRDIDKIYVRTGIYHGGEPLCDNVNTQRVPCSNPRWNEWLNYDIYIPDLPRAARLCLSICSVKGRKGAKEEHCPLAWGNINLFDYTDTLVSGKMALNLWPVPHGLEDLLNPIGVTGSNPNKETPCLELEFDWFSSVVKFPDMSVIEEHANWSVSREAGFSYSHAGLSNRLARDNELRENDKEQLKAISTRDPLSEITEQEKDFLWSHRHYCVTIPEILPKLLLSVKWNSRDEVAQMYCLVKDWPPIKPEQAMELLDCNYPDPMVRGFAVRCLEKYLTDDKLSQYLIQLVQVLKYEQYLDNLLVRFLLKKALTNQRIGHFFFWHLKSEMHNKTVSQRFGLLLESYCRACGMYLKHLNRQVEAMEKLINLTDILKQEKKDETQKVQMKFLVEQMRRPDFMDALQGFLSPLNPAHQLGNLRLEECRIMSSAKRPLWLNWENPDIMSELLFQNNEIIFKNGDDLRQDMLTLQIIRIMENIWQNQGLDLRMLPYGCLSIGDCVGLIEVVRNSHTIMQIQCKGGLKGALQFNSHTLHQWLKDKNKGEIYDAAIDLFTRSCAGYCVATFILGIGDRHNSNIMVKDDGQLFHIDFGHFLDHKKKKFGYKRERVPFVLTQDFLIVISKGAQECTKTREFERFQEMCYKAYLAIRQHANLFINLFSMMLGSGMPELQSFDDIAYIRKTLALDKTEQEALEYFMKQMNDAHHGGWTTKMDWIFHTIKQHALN
Sequence (P27986 whole entry partner): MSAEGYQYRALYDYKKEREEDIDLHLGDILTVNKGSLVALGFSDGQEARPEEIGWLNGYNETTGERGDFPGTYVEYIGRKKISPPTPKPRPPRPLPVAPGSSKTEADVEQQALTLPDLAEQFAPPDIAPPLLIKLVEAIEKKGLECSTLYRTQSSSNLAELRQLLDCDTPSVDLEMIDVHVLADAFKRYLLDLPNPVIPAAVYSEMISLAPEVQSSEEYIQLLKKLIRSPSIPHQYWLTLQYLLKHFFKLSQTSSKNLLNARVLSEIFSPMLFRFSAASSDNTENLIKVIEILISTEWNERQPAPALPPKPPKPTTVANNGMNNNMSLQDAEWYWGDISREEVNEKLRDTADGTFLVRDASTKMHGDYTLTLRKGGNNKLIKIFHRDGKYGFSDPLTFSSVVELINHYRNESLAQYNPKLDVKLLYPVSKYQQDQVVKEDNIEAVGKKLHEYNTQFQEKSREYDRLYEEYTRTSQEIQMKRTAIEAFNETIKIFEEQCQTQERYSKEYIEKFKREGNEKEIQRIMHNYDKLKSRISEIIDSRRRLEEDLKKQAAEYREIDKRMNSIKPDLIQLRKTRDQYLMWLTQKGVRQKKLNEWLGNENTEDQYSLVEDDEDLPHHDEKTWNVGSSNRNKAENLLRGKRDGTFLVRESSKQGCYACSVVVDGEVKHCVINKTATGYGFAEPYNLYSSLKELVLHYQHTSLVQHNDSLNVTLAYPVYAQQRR
readout_type: IC50

Nc1nc2cc(-c3cnc4ccc(C(=O)N5CCOCC5)cn34)ccc2o1 [Compound 12]; > 10 µM
O=C(c1cnc2ccc(-c3cncc4c3cnn4CCO)cn12)N1CCOCC1 [Compound 10]; > 10 µM
CN1CCN(Cc2nnc3ccc(-c4ccc5nc(N)oc5c4)cn23)CC1 [Compound 18]; > 10 µM
Cc1ncc(-c2ccc3ncc(C(=O)N4CCOCC4)n3c2)c2cc[nH]c12 [Compound 7]; < 10 µM
O=C(c1cnc2ccc(-c3cnc4cc[nH]c4c3)cn12)N1CCOCC1 [Compound 5]; < 10 µM
CN1CC2CN(C(=O)c3cnc4ccc(-c5ccc6oc(N)nc6c5)cn34)CC2C1 (stereo not shown) [Compound 4]; < 0.1 µM
Nc1nc2cc(-c3cnc4ccc(C(=O)N5C6CCC5COC6)cn34)ccc2o1 [Compound 11]; > 10 µM
Cc1ncc(-c2ccc3ncc(C(=O)N4C5CCC4COC5)n3c2)c2cn[nH]c12 [Compound 9]; < 0.1 µM
O=C(c1cnc2ccc(-c3ccnc4[nH]ncc34)cn12)N1CCOCC1 [Compound 3]; < 10 µM
Cc1ncc(-c2ccc3ncc(C(=O)N4CCOCC4)n3c2)c2cn[nH]c12 [Compound 1]; < 0.1 µM
